# Test system: Aeromonas hydrophila
# Procedure Summary: MIC against Gram-negative bacteria: Aeromonas hydrophila
# Format: cell-based
# Condition: A. hydrophila; 10 h cultivation at 37° C.
Measured Parameter: MIC (µg/mL)
Numbers only, in µg/mL.

{"Substance": "PRT983 (VARSCRELQCPVGVPCQQTPRGPRCACPPGLSGPSCR; listed as Homo sapiens)", "MIC, µg/mL": 25}

Look at each substance and report its MIC.
1. PRT1002 (FPDPCQNAQLCQNGGSCQALLPAPLGLPSSPSPLTPSFLCTCLPGFTGERCQ; listed as Homo sapiens)
2. PRT951 (WTDACLSHPCANGSTCTTVANQFSCKCLTGFTGQKCE; listed as Homo sapiens)
3. PRT915 (ASSPCLGGNPCYNQGTCEPTSESPFYRCLCPAKFNGLLCH; listed as Homo sapiens)
4. PRT934 (DKNECLSNPCQNGGTCDNLVNGYRCTCKKGFKGYNCQ; listed as Homo sapiens)
5. PRT982 (VLSPCESQPCQHGGQCRPSPGPGGGLTFTCHCAQPFWGPRCE; listed as Homo sapiens)
6. PRT1026 (NKETCEHNHRQCSRHAFCTDYATGFCCHCQSKFYGNGKHCL; listed as Homo sapiens)
7. PRT899 (NINECASNPCLNQGTCIDDVAGYKCNCLLPYTGATCE; listed as Homo sapiens)

*A*
1: 50; 2: 12.5; 3: 25; 4: 25; 5: 25; 6: 50; 7: 12.5

###

# Test system: Pseudomonas aeruginosa
# Procedure Summary: MIC against Gram-negative bacteria: Pseudomonas aeruginosa
# Type: cell-based
# Condition: 96-well plate, 5×10^5 CFU/mL, 37° C., 10 h
Hi there, I'd appreciate the recorded MIC against P. aeruginosa for every entry that follows.
One number for each entry, in µg/mL.

Field: example entries. Status: answers known.
{"Substance": "PRT510 (CDCFLPGTDATTCDSETKKCSCSDQTGQCTCKVNVEGIHCDRCRPGKFGLDAKNPLGCSS; listed as Homo sapiens)", "MIC against P. aeruginosa, µg/mL": 12.5}
{"Substance": "PRT523 (CSCGRRLCEEMTGQCRCPPRTVRPQCEVCETHSFSFHPMAGCEG; listed as Homo sapiens)", "MIC against P. aeruginosa, µg/mL": 50}
{"Substance": "PRT513 (CECDPYGSLPVPCDPVTGFCTCRPGATGRKCDGCKHWHAREGWECVF; listed as Homo sapiens)", "MIC against P. aeruginosa, µg/mL": 50}
{"Substance": "PRT517 (CQCFGHAESCDDVTGECLNCKDHTGGPYCDKCLPGFYGEPTKGTSEDCQP; listed as Homo sapiens)", "MIC against P. aeruginosa, µg/mL": 25}

Consider the record given below.
*Q* Dear colleague, I am looking for the recorded MIC against P. aeruginosa of the following substance: PRT543 (CGCHEVGATGPTCEPFGGQCPCHAHVIGRDCSRCATGYWGFPNCRP; listed as Homo sapiens)
*A* 12.5

###

# Tested on: Serratia marcescens
# Procedure Summary: MIC against Gram-negative bacteria: Serratia marcescens
# Type: cell-based
# Condition: Serratia marcescens; 5×10^5 CFU/mL; 10 h cultivation at 37° C.
Provide the reported MIC against S. marcescens of each item.
One number for each entry, in µg/mL.

{"Substance": "PRT1408 (NEICSVDCGSHGVCMGGTCRCEEGWTGPACNQ; listed as Homo sapiens)", "Target Entity": "Serratia marcescens", "Value Units": "µg/mL", "MIC against S. marcescens": 25}
{"Substance": "PRT1347 (NVDECLSQPCKNGATCKDGANSFRCLCAAGFTGSHCE; listed as Homo sapiens)", "Target Entity": "Serratia marcescens", "Value Units": "µg/mL", "MIC against S. marcescens": 12.5}
{"Substance": "PRT1380 (SQRSCPRGCSQRGRCEGGRCVCDPGYTGDDC; listed as Homo sapiens)", "Target Entity": "Serratia marcescens", "Value Units": "µg/mL", "MIC against S. marcescens": 50}
{"Substance": "PRT1415 (PRATCLDQCSGHGTFLPDTGLCSCDPSWTGHDCS; listed as Homo sapiens)", "Target Entity": "Serratia marcescens", "Value Units": "µg/mL", "MIC against S. marcescens": 50}
{"Substance": "PRT1367 (YPACPENCSGHGECVRGVCQCHEDFMSEDCS; listed as Homo sapiens)", "Target Entity": "Serratia marcescens", "Value Units": "µg/mL", "MIC against S. marcescens": 25}

Attention now turns to another entry.
*Q* Fill in the blank: the reported MIC against S. marcescens of PRT1450 (VPSNCDCLNGGTCVSNKYFSNIHWCNCPKKFGGQHCE; listed as Homo sapiens) is ____.
*A* 25
